Measured values drawn from the supplement of paper PMC5579334 for this set.

- Test system: HS-PSS
- test.summary: % inhibition of CellTiter-Glo viability at highest tested concentration (72 h), relative to DMSO and benzethonium chloride controls; higher = more inhibition
Rule: condition met for % inhibition not less than 40%, condition not met for anything less.

Exercise: Check this molecule for % inhibition at or above 40%: Cn1cncc1[C@@](N)(c1ccc(Cl)cc1)c1ccc2c(c1)c(-c1cccc(Cl)c1)cc(=O)n2C [Tipifarnib] (max concentration tested 10000 nM)
Solution: condition met

Exercise: Another molecule to check: CCCC(CCC)C(=O)O [Valproic acid] (max concentration tested 1000000 nM)
Solution: condition not met

Exercise: Another molecule to check: Nc1nc(OCc2cc(Br)cs2)c2[nH]cnc2n1 [Lomeguatrib] (max concentration tested 10000 nM)
Solution: condition not met

Exercise: Another molecule to check: C/C(=C\c1csc(C)n1)[C@@H]1C[C@@H]2O[C@]2(C)CCC[C@H](C)[C@H](O)[C@@H](C)C(=O)C(C)(C)[C@@H](O)CC(=O)O1 [Patupilone] (max concentration tested 1000 nM)
Solution: condition met

Exercise: Another molecule to check: NC(=O)Nc1cc(-c2cccc(F)c2)sc1C(=O)N[C@H]1CCCNC1 [AZD7762] (max concentration tested 1000 nM)
Solution: condition met

Exercise: Another molecule to check: COc1cc2nccc(Oc3ccc(NC(=O)C4(C(=O)Nc5ccc(F)cc5)CC4)cc3)c2cc1OC [Cabozantinib] (max concentration tested 1000 nM)
Solution: condition not met
